Assay: Photophysical properties in aqueous buffer (UV-visible, fluorescence, quantum yield, extinction coefficient)
Format: physicochemical
Details: Apo
Readout: Brightness (ε*Φ/1000)

* COc1ccc2n1[B-](F)(F)[N+]1=C(N(CCN(Cc3ccccn3)Cc3ccccn3)Cc3ccccn3)C=CC1=C2c1c(C)cc(C)cc1C [ZincBY-1, reference compound] | 5.21(72) M^−1cm^−1
* Cc1cc(C)c(C2=C3C=CC(OCCN)=[N+]3[B-](F)(F)n3c2ccc3N(CCN(Cc2ccccn2)Cc2ccccn2)Cc2ccccn2)c(C)c1 | 1.85(8) M^−1cm^−1
* CC(=O)NCCOc1ccc2n1[B-](F)(F)[N+]1=C(N(CCN(Cc3ccccn3)Cc3ccccn3)Cc3ccccn3)C=CC1=C2c1c(C)cc(C)cc1C | 1.44(7) M^−1cm^−1
* Cc1cc(C)c(C2=C3C=CC(OCCN=[N+]=[N-])=[N+]3[B-](F)(F)n3c2ccc3N(CCN(Cc2ccccn2)Cc2ccccn2)Cc2ccccn2)c(C)c1 | 2.35(58) M^−1cm^−1

---

Assay: Photophysical properties in aqueous buffer (UV-visible, fluorescence, quantum yield, extinction coefficient)
Assay type: physicochemical
Conditions: Apo, aqueous buffer pH 7.2
# λEm (max) per record follows
Readout: λEm (max)

• Cc1cc(C)c(C2=C3C=CC(OCCN)=[N+]3[B-](F)(F)n3c2ccc3N(CCN(Cc2ccccn2)Cc2ccccn2)Cc2ccccn2)c(C)c1 = 585 nm
• CC(=O)NCCOc1ccc2n1[B-](F)(F)[N+]1=C(N(CCN(Cc3ccccn3)Cc3ccccn3)Cc3ccccn3)C=CC1=C2c1c(C)cc(C)cc1C = 585 nm
• COc1ccc2n1[B-](F)(F)[N+]1=C(N(CCN(Cc3ccccn3)Cc3ccccn3)Cc3ccccn3)C=CC1=C2c1c(C)cc(C)cc1C [ZincBY-1, reference compound] = 559 nm
• Cc1cc(C)c(C2=C3C=CC(OCCN=[N+]=[N-])=[N+]3[B-](F)(F)n3c2ccc3N(CCN(Cc2ccccn2)Cc2ccccn2)Cc2ccccn2)c(C)c1 = 566 nm

---

Measured Brightness (ε*Φ/1000) accompanies every entry in the list below.
Test: Photophysical properties in aqueous buffer (UV-visible, fluorescence, quantum yield, extinction coefficient)
Type: physicochemical
Conditions: Zn-bound
Readout: Brightness (ε*Φ/1000)

- Cc1cc(C)c(C2=C3C=CC(OCCN=[N+]=[N-])=[N+]3[B-](F)(F)n3c2ccc3N(CCN(Cc2ccccn2)Cc2ccccn2)Cc2ccccn2)c(C)c1: 13.58(1.93) M^−1cm^−1
- Cc1cc(C)c(C2=C3C=CC(OCCN)=[N+]3[B-](F)(F)n3c2ccc3N(CCN(Cc2ccccn2)Cc2ccccn2)Cc2ccccn2)c(C)c1: 12.42(36) M^−1cm^−1
- COc1ccc2n1[B-](F)(F)[N+]1=C(N(CCN(Cc3ccccn3)Cc3ccccn3)Cc3ccccn3)C=CC1=C2c1c(C)cc(C)cc1C [ZincBY-1, reference compound]: 26.97(2.30) M^−1cm^−1
- CC(=O)NCCOc1ccc2n1[B-](F)(F)[N+]1=C(N(CCN(Cc3ccccn3)Cc3ccccn3)Cc3ccccn3)C=CC1=C2c1c(C)cc(C)cc1C: 12.15(34) M^−1cm^−1

---

Experiment: Zinc dissociation constant, fluorescence titration in buffered EGTA-zinc solution
Format: binding
Details: 200 nM probe, 50 mM HEPES, 0.1 M KNO3, pH 7.2, 10 mM EGTA
pKd: −log10 of the molar value.
Readout: pKd

- CC(=O)NCCOc1ccc2n1[B-](F)(F)[N+]1=C(N(CCN(Cc3ccccn3)Cc3ccccn3)Cc3ccccn3)C=CC1=C2c1c(C)cc(C)cc1C: 9.64
- COc1ccc2n1[B-](F)(F)[N+]1=C(N(CCN(Cc3ccccn3)Cc3ccccn3)Cc3ccccn3)C=CC1=C2c1c(C)cc(C)cc1C [ZincBY-1, reference compound]: 8.43
- Cc1cc(C)c(C2=C3C=CC(OCCN=[N+]=[N-])=[N+]3[B-](F)(F)n3c2ccc3N(CCN(Cc2ccccn2)Cc2ccccn2)Cc2ccccn2)c(C)c1: 7.74
- Cc1cc(C)c(C2=C3C=CC(OCCN)=[N+]3[B-](F)(F)n3c2ccc3N(CCN(Cc2ccccn2)Cc2ccccn2)Cc2ccccn2)c(C)c1: 10.01
